Biological target: Recombinant ROCK1 (amino acids 1-477) (Homo sapiens)
Construct: Recombinant ROCK1 (amino acids 1-477); by word order, ROCK1 from Carna Biosciences
Sequence (Q13464 1-477): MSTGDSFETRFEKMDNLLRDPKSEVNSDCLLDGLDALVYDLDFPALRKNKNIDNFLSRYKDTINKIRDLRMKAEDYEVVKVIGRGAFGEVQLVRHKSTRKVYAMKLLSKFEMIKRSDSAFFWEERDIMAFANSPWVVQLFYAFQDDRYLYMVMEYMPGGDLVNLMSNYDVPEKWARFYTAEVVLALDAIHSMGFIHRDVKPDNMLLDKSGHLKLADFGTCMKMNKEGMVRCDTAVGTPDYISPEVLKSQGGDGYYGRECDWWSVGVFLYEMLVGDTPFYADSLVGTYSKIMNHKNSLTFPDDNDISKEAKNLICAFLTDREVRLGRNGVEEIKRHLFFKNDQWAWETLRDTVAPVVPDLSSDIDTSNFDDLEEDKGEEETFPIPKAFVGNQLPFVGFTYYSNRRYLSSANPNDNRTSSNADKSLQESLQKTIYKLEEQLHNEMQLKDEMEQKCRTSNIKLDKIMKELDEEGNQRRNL
Assay: ROCK inhibition assay, LANCE Ultra TR-FRET kinase assay (ROCK1)
Details: 1 μM ATP, 50 nM ULight-CREBtide substrate
Procedure: Kinase IC50 was determined through an in vitro assay based on LANCE Ultra TR-FRET (Time-Resolved Fluorescence Resonance Energy Transfer) homogeneous technologies method (Perkin Elmer). […] Compound activities were measured by Envision and IC50s were calculated. […] The reaction was incubated for 1 hour, and the signal was read in Envision in TR-FRET mode (excitation at 320 nm and emission at 615/665 nm). […]
MEASURED_METRIC: IC50

Sample answers from the record:
stdin: Find the measured IC50: item O=C(NC1COC1)c1cccc(Cn2ccc3cc(N4CCOCC4)ccc3c2=O)c1 , target or system Recombinant ROCK1 (amino acids 1-477) (Homo sapiens).
stdout: 11 to 100 nM

stdin: Entry to check: CNC(=O)c1cccc(Cn2ccc3cc(-c4cn[nH]c4C(F)F)ccc3c2=O)c1
stdout: 11 to 100 nM

stdin: Entry to check: CN1CCC(CNC(=O)c2cccc(Cn3ccc4cc(-c5c[nH]nc5C(F)F)ccc4c3=O)c2)CC1
stdout: < 10 nM

stdin: And for O=C(NC1CCOCC1)c1cccc(Cn2cnc3cc(-c4cn[nH]c4C(F)(F)F)ccc3c2=O)c1 ?
stdout: 11 to 100 nM

Record IC50 for all entries; do not skip any.
1. CNC(=O)c1cccc([C@@H](C)n2cnc3cc(-c4cn[nH]c4N)ccc3c2=O)c1
2. CC(O)c1cn(Cc2cccc(C(=O)NC3CCOCC3)c2)c(=O)c2ccc(-c3c[nH]nc3C(F)F)cc12 (stereo not shown)

stdout:
1. 11 to 100 nM
2. < 10 nM

Please give IC50, item by item, for the list that follows.
1. CNC(=O)c1cccc(Cn2ccc3cc(-c4ccnn4C)ncc3c2=O)c1
2. [2H]C([2H])([2H])NC(=O)c1cccc(Cn2ccc3cc(-c4cc[nH]c4C)ncc3c2=O)c1
3. CC(C)N1CCC(NC(=O)c2cc(F)cc(Cn3ccc4cc(-c5ccnn5C)ccc4c3=O)c2)CC1
4. Nc1cc(-c2ccc3c(=O)n(Cc4cccc(C(=O)NCCc5ccccn5)c4)ccc3c2)ccn1
5. [2H]C([2H])([2H])NC(=O)c1cc(F)cc(Cn2ccc3cc(-c4cn[nH]c4C(F)(F)F)ccc3c2=O)c1
6. Cc1nocc1-c1ccc2c(=O)n(Cc3cccc(C(=O)NCCN4CCN(C)CC4)c3)ccc2c1
7. CNC(=O)c1cccc(Cn2ccc3cc(-c4cn[nH]c4)ccc3c2=O)c1
8. Cn1nccc1-c1ccc2c(=O)n(Cc3cccc(C(=O)Nc4ccc5c(c4)CNCC5)c3)ccc2c1

stdout:
101 to 500 nM
11 to 100 nM
101 to 500 nM
11 to 100 nM
11 to 100 nM
< 10 nM
< 10 nM
< 10 nM

Items follow; give IC50 for each.
1. Cn1nccc1-c1ccc2c(=O)n(Cc3cccc(C(=O)NCc4ccnc(F)c4)c3)ccc2c1
2. O=C(NCC1CCNCC1)c1cc(F)cc(Cn2ccc3cc(-c4c[nH]nc4C(F)F)ccc3c2=O)c1

stdout:
101 to 500 nM
< 10 nM
